# target-entity: MMP-13 (Homo sapiens, UniProt P45452)
# Construct: made in house
# assay: In-vitro fluorescence assay of MMP-13 activity
# Assay type: biochemical
# applied-conditions: MMP-13 IC50, recombinant human catalytic domain of MMP-13

>  <compound>
Cc1c(C(=O)Nc2ccc(-c3ccc(S(=O)(=O)N[C@H](C(=O)O)C(C)C)cc3)cc2)oc2cccc(N3CCOCC3)c12

>  <reading-unit>
nM

>  <IC50>
32

$$$$
>  <compound>
Cc1c(C(=O)Nc2ccc(-c3ccc(S(=O)(=O)N[C@H](C(=O)O)C(C)C)cc3)cc2)oc2cccc(Oc3ccccc3)c12

>  <reading-unit>
nM

>  <IC50>
19

$$$$
>  <compound>
COc1c(Br)ccc2oc(COc3ccc(-c4ccc(S(=O)(=O)N[C@H](C(=O)O)C(C)C)cc4)cc3)c(C)c12

>  <reading-unit>
nM

>  <IC50>
1.4

$$$$
>  <compound>
Cc1c(C(=O)Nc2ccc(-c3ccc(S(=O)(=O)N[C@H](C(=O)O)C(C)C)cc3)cc2)oc2cccc(-c3ccoc3)c12

>  <reading-unit>
nM

>  <IC50>
6.4

$$$$
>  <compound>
CC(C)C(NS(=O)(=O)c1ccc(-c2ccc(NC(=O)c3cc4cc(NS(C)(=O)=O)ccc4o3)cc2)cc1)C(=O)O (stereo in doubt)

>  <reading-unit>
nM

>  <IC50>
0.4

$$$$
>  <compound>
Cc1c(C(=O)Nc2ccc(-c3ccc(S(=O)(=O)N[C@H](C(=O)O)C(C)C)cc3)cc2)oc2cccc(-c3ccccc3)c12

>  <reading-unit>
nM

>  <IC50>
15

$$$$

====

Reported values of pIC50 for individual entries
# target-entity: MMP-2 (Homo sapiens, UniProt P08253)
# Construct: purchased Oncogene Research Products (Calbiochem) PF023
# Sequence (P08253 110-660): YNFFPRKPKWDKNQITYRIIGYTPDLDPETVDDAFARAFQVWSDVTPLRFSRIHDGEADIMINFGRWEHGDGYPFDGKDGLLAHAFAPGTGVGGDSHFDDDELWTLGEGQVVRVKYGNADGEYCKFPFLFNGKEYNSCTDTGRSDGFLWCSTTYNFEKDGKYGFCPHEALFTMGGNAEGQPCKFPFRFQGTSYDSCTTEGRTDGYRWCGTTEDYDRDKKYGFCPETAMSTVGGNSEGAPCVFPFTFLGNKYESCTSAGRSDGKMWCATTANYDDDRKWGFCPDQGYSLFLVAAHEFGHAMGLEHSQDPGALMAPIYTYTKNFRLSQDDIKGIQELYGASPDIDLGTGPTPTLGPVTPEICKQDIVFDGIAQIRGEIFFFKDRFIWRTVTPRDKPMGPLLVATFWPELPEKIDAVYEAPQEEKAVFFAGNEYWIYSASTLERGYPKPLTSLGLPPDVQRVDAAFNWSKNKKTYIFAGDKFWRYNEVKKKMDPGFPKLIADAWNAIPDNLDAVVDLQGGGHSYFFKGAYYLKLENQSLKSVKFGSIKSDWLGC
# assay: In-vitro fluorescence assay of MMP-2 activity
# Format: biochemical
# applied-conditions: recombinant human MMP-2; read-out: MMP-2 IC50
pIC50: −log10 of the molar value.

>  <compound>
Cc1c(C(=O)Nc2ccc(-c3ccc(S(=O)(=O)N[C@H](C(=O)O)C(C)C)cc3)cc2)oc2cccc(OCC(=O)O)c12

>  <pIC50>
5.45

$$$$
>  <compound>
CC(C)[C@H](NS(=O)(=O)c1ccc(-c2ccc(NC(=O)c3cc4cc(Cl)ccc4o3)cc2)cc1)C(=O)O

>  <pIC50>
8.39

$$$$
>  <compound>
CCC(C)Oc1cccc2oc(C(=O)Nc3ccc(-c4ccc(S(=O)(=O)N[C@H](C(=O)O)C(C)C)cc4)cc3)c(C)c12 (some centres unmarked)

>  <pIC50>
5.00

$$$$
>  <compound>
CC(C)C(NS(=O)(=O)c1ccc(-c2ccc(NC(=O)c3cc4cc(NS(C)(=O)=O)ccc4o3)cc2)cc1)C(=O)O (stereo in doubt)

>  <pIC50>
8.41

$$$$
>  <compound>
Cc1c(COc2ccc(-c3ccc(S(=O)(=O)N[C@@H](C(=O)O)C(C)C)cc3)cc2)oc2ccccc12

>  <pIC50>
7.55

$$$$
>  <compound>
CC(C)[C@@H](NS(=O)(=O)c1ccc(-c2ccc(OC(=O)c3cc4ccccc4o3)cc2)cc1)C(=O)O

>  <pIC50>
9.15

$$$$
>  <compound>
CC(Oc1cccc2oc(C(=O)Nc3ccc(-c4ccc(S(=O)(=O)N[C@H](C(=O)O)C(C)C)cc4)cc3)cc12)C(=O)O (some centres unmarked)

>  <pIC50>
6.04

$$$$
>  <compound>
CC(C)[C@H](NS(=O)(=O)c1ccc(-c2ccc(NC(=O)c3cccs3)cc2)cc1)C(=O)O

>  <pIC50>
7.21

$$$$
>  <compound>
Cc1c(C(=O)Nc2ccc(-c3ccc(S(=O)(=O)N[C@H](C(=O)O)C(C)C)cc3)cc2)oc2ccccc12

>  <pIC50>
6.59

$$$$
>  <compound>
Cc1c(C(=O)Nc2ccc(-c3ccc(S(=O)(=O)N[C@H](C(=O)O)C(C)C)cc3)cc2)oc2cccc(C(=O)N(C)C)c12 [Example 43B]

>  <pIC50>
5.11

$$$$
>  <compound>
COc1c(Cl)ccc2oc(C(=O)Nc3ccc(-c4ccc(S(=O)(=O)N[C@H](C(=O)O)C(C)C)cc4)cc3)c(C)c12

>  <pIC50>
5.83

$$$$
>  <compound>
Cc1c(C(=O)Nc2ccc(-c3ccc(S(=O)(=O)N[C@H](C(=O)O)C(C)C)cc3)cc2)oc2cccc(OCCNC(=O)OC(C)(C)C)c12

>  <pIC50>
5.52

$$$$
>  <compound>
O=C(O)CNS(=O)(=O)c1ccc(-c2ccc(NC(=O)c3cc4ccccc4o3)cc2)cc1

>  <pIC50>
7.33

$$$$
>  <compound>
CC(C)[C@H](NS(=O)(=O)c1ccc(-c2ccc(NC(=O)c3cc4c(-c5ccccc5)nn(C)c4s3)cc2)cc1)C(=O)O

>  <pIC50>
5.03

$$$$

Origin of measurements: patent US7420001B2
